Reference source for all entries: ChEMBL document CHEMBL5126611

# MEASURED ON: Cytochrome P450 11B2, mitochondrial (Homo sapiens, UniProt P19099)
# Sequence (P19099 whole entry): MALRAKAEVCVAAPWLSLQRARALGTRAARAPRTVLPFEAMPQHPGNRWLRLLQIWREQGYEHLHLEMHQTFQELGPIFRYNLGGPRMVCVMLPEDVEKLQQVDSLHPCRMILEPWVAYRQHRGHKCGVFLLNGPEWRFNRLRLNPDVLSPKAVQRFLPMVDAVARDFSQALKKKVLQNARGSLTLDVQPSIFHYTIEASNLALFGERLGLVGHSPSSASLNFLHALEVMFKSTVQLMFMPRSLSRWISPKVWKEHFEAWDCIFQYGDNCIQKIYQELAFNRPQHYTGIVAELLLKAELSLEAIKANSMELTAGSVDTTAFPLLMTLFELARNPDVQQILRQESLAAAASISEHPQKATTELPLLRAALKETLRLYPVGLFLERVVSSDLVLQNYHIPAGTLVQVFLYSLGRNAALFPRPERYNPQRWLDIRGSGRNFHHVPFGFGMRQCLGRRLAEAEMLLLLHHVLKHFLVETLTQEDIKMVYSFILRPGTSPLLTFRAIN
# ASSAY NAME: Inhibition of human CYP11B2 expressed in Chinese hamster V79 MZh cells using [14C]-deoxycorticosteron as substrate measured after 6 hrs by phosphoimager analysis
RECORDED METRIC: pIC50
Field pIC50 (float): negative decimal logarithm of the concentration in molar.

Req: Reported pIC50 for O=C(Nc1ccc([N+](=O)[O-])cc1)[C@]12ON=C(c3cccnc3)[C@H]1[C@@H]1CC[C@H]2C1 : what is it?
Resp: 5.25

Req: Recorded pIC50 of O=C(Nc1ccc2[nH]ncc2c1)[C@]12ON=C(c3cncc(-c4ccsc4)c3)[C@H]1[C@@H]1CC[C@H]2C1 , please.
Resp: 5.85

Req: So what's the measured pIC50 for this one? O=C(Nc1cnc2[nH]ccc2c1)[C@]12ON=C(c3cccnc3)[C@H]1[C@@H]1CC[C@H]2C1
Resp: 5.78

Req: So what does the record say about pIC50 for Cc1ccncc1NC(=O)[C@]12ON=C(c3cccnc3)[C@H]1[C@@H]1CC[C@H]2C1 ?
Resp: 5.35

Req: Look at this compound and give its reported pIC50. Cc1ccc(NC(=O)[C@]23ON=C(c4cccnc4)[C@H]2[C@@H]2CC[C@H]3C2)cc1
Resp: 5.21

Req: I'd like to know its pIC50. The compound in question is O=C(Nc1ccc2[nH]ncc2c1)[C@]12ON=C(c3cncc(Br)c3)[C@H]1[C@@H]1CC[C@H]2C1
Resp: 6.04

Req: Field request: pIC50 | item: N#Cc1ccc(-c2cncc(C3=NO[C@]4(C(=O)Nc5ccc6[nH]ncc6c5)[C@H]5CC[C@H](C5)[C@H]34)c2)cc1
Resp: 7.24

Req: Looking for the measured pIC50 of O=C(Nc1ccccc1F)[C@]12ON=C(c3cccnc3)[C@H]1[C@@H]1CC[C@H]2C1 , can you help?
Resp: 5.24

Req: Return reported pIC50; argument: N#Cc1cccc(NC(=O)[C@]23ON=C(c4cccnc4)[C@H]2[C@@H]2CC[C@H]3C2)c1
Resp: 5.66

Req: Given the entry Cc1ccccc1NC(=O)[C@]12ON=C(c3cccnc3)[C@H]1[C@@H]1CC[C@H]2C1 , report its measured pIC50.
Resp: 5.01

Req: I am curious: what pIC50 value has been reported for COc1cccc(NC(=O)[C@]23ON=C(c4cccnc4)[C@H]2[C@@H]2CC[C@H]3C2)c1 ?
Resp: 5.62

Req: Sample O=C(Nc1cccc([N+](=O)[O-])c1)[C@]12ON=C(c3cccnc3)C1[C@@H]1CCC2C1 (single isomer, unassigned) — what was its pIC50?
Resp: 5.58

Req: Data request, read-out pIC50, for N#Cc1ccc(NC(=O)[C@]23ON=C(c4cccnc4)[C@H]2[C@@H]2CC[C@H]3C2)cc1
Resp: 5.42

Req: // query pIC50 value for entry O=C(Nc1ccc2[nH]ncc2c1)[C@]12ON=C(c3cncc(-c4cccc(F)c4)c3)[C@H]1[C@@H]1CC[C@H]2C1
Resp: 6.39

Req: Recorded pIC50 for COc1cccc(-c2cncc(C3=NO[C@]4(C(=O)Nc5ccc6[nH]ncc6c5)[C@H]5CC[C@H](C5)[C@H]34)c2)c1 , please?
Resp: 6.32

Req: Request the reported pIC50 associated with CN(C(=O)[C@]12ON=C(c3cccnc3)[C@H]1[C@@H]1CC[C@H]2C1)c1ccccc1
Resp: 5.37
